pIC50: −log10 of the molar value.
// note: pIC50 values for P2X purinoceptor 7 (Homo sapiens, UniProt Q99572) were reported in different studies

{"compound": "O=C(c1cccc(C(F)(F)F)c1Cl)N1CCn2c(-c3cnccn3)cnc2C1", "qualifier-symbol": "=", "pIC50": 8.70}
{"compound": "O=C(NCc1cccc(C(F)(F)F)c1Cl)C1CCC(=O)N1C1CC1 (configuration not stated)", "qualifier-symbol": "=", "pIC50": 8.90}
{"compound": "O=C1C(=O)N(c2ccccc2C(F)(F)F)CCN1Cc1ccc(F)cc1Cl", "qualifier-symbol": "=", "pIC50": 7.80}
{"compound": "CN1C(=O)N(c2ncc(F)cn2)C[C@H]1C(=O)NCc1ccc(Cl)cc1Cl", "qualifier-symbol": "=", "pIC50": 8.40}
{"compound": "O=C(c1ccc(F)cc1Cl)N1CCn2c(nnc2-c2cccc(Cl)c2)C1", "qualifier-symbol": "=", "pIC50": 7.90}
{"compound": "Cc1nn(-c2ccccc2)c(C)c1CC(=O)NCc1c(Cl)cccc1Cl", "qualifier-symbol": "=", "pIC50": 7.20}
{"compound": "CN1C(=O)N(c2ncccn2)C[C@H]1C(=O)NCc1ccc(F)cc1Cl", "qualifier-symbol": "=", "pIC50": 7.60}
{"compound": "Cc1ccc(CNC(=O)Cc2c(C)noc2C)c(C)c1", "qualifier-symbol": "=", "pIC50": 6.60}
{"compound": "O=C(c1cccc(C(F)(F)F)c1Cl)N1CCN(c2ccc(F)cc2)C(=O)C1", "qualifier-symbol": "=", "pIC50": 7.60}
{"compound": "CC(C)N1C(=O)CCC1C(=O)NCc1ccc(F)cc1Cl (configuration not stated)", "qualifier-symbol": "=", "pIC50": 6.50}
{"compound": "Cc1ccccc1CNC(=O)Cc1c(C)n[nH]c1C", "qualifier-symbol": "=", "pIC50": 6.80}
{"compound": "CCN(CC)c1ccc(N2CCN(Cc3ccc(F)cc3Cl)C(=O)C2=O)c(C)c1", "qualifier-symbol": "=", "pIC50": 7.90}
{"compound": "CN1[C@H](C(=O)NCc2ccc(F)c(F)c2Cl)CCS1(=O)=O", "qualifier-symbol": "=", "pIC50": 7.10}
{"compound": "Cn1nccc1-c1nnc2n1CCN(C(=O)c1cccc(C(F)(F)F)c1Cl)C2", "qualifier-symbol": "=", "pIC50": 7.80}
{"compound": "O=C(c1cccc(Cl)c1Cl)N1CCn2c(Br)nnc2C1", "qualifier-symbol": "=", "pIC50": 7.30}
{"compound": "CCN1C(=O)CC[C@H]1C(=O)NCc1cccc(Cl)c1F", "qualifier-symbol": "=", "pIC50": 7.10}
{"compound": "O=C1CC[C@@H](C(=O)NCc2ccc(F)cc2Cl)N1", "qualifier-symbol": ">", "pIC50": 6.00}
{"compound": "Cc1nn(C2CCCC2)c(C)c1CC(=O)NCc1ccc(F)cc1Cl", "qualifier-symbol": "=", "pIC50": 6.30}
{"compound": "O=C1CN(C(=O)c2cccc(C(F)(F)F)c2Cl)CCN1CC1CCCO1 (configuration not stated)", "qualifier-symbol": "=", "pIC50": 7.10}
{"compound": "O=C(c1ccc(F)cc1Cl)N1CCn2c(nnc2-c2cccc(F)c2F)C1", "qualifier-symbol": "=", "pIC50": 7.40}
{"compound": "Cc1ccc(N2C[C@@H](C(=O)NCc3ccc(Cl)cc3Cl)N(C)C2=O)cn1", "qualifier-symbol": "=", "pIC50": 7.60}
{"compound": "O=C(c1cccc(C(F)(F)F)c1Cl)N1CCn2c(nnc2-c2ccncc2)C1", "qualifier-symbol": "=", "pIC50": 7.60}

###

Dear all, I have gathered published pIC50 values for P2X purinoceptor 7 (Homo sapiens); the list follows.
pIC50: −log10 of the molar value.

{"given-smiles": "CCN1C(=O)CC[C@H]1C(=O)NCc1ccccc1C(F)(F)F", "pIC50": 6.20}
{"given-smiles": "Cc1nn(-c2ccccc2)c(C)c1CC(=O)NC(C)(C)c1ccccc1", "pIC50": 6.90}
{"given-smiles": "Cc1nn(-c2ccc(C(=O)NCc3ccccn3)cc2)c(C)c1CC(=O)NCc1ccc(F)cc1Cl", "pIC50": 7.80}
{"given-smiles": "Cc1ccccc1CN1CCN(c2ccccc2C)C(=O)C1=O", "pIC50": 6.30}
{"given-smiles": "O=C1C(=O)N(c2ccc3c(c2)OCCO3)CCN1Cc1ccc(F)cc1Cl", "pIC50": 6.70}
{"given-smiles": "O=C(c1cccc(C(F)(F)F)c1Cl)N1CCn2c(nnc2-c2ccncn2)C1", "pIC50": 7.90}
